- Tested on: Trypanosoma brucei rhodesiense
- experiment description: Antiprotozoal activity against long slender blood stream form Trypanosoma brucei rhodesiense STIB900 assessed as parasite growth inhibition incubated for 70 hrs by resazurin based microplate fluorometer analysis
- Type: functional, organism-based
- experimental setup: STIB900, 70 h
quantity measured: IC50 (nM)
Quick note: give the figure in nM, leave out the unit.

Examples with their reported IC50 follow.
| structure smiles | value unit | IC50 |
| --- | --- | --- |
| N=C(N)c1ccc(-c2ccc(-c3cc4cc(C(=N)N)ccc4[nH]3)o2)nc1 | nM | 6 |
| N=C(N)c1ccc(-c2ccc(-c3nc4cc(C(=N)N)ccc4[nH]3)o2)cc1 | nM | 122 |

Read the next record carefully.
Checklist item: IC50 tested on Trypanosoma brucei rhodesiense, entry "N=C(N)c1ccc(-c2ccc(-c3cc4cc(C(=N)N)ccc4[nH]3)s2)cc1" , value?
6
